Entries annotated with measured growth
System: SK-MEL-28 melanoma
Test: NCI-60 one-dose screen, 48 h (100 = growth as untreated, 0 = no growth, -100 = all killed)
Conditions: 10 µM unless noted
Method: Growth inhibition of the SK-MEL-28 human tumor cell line is measured as a screen for anti-cancer activity. Cells are grown in 96 well plates and exposed to the test compound for 48 hours. Compounds are tested at a single concentration, which is 10^-5 M for most compounds. The reported endpoint is percent growth (GI% or GIPRCNT), where numbers from 0 - 100% represent growth inhibition, and numbers from -100% - 0 represent cell death. For example, a value of 40 represents 60% growth inhibition. […]
This is part of a sample that, as a whole, favours compounds with a hit. Of some 83,000 tested, about 20% had one in any assay. Active and inactive are the calls of the source. The calls were made as follows: active = growth percent below 10; inactive = the rest.

INSERT INTO assay_data (compound, reported_property, reported_measurement) VALUES
  ('CN(C)c1ccc(C(=C2C=CC(=[N+](C)C)C=C2)c2ccc(N(C)C)cc2)cc1', 'growth', '-79.6% (active)'),
  ('COc1cc2c(c(OC)c1OC)-c1ccc(NCc3ccccc3)c(=O)cc1[C@@H](NC(C)=O)CC2', 'growth', '42.2% (inactive)');

Query: growth; subject: O=[N+]([O-])c1ccc(Oc2ccccc2Cl)c([N+](=O)[O-])c1
103% (inactive)

Query: growth; subject: COc1c(C)c2c(c(O)c1C/C=C(\C)CCC(=O)O)C(=O)OC2
31.3% (inactive)

Query: growth; subject: Oc1c(Cl)cc(Cl)cc1C=NCC1CCC(CN=Cc2cc(Cl)cc(Cl)c2O)CC1 (stereo not drawn)
89.2% (inactive)

Query: growth; subject: O=[N+]([O-])CC(O)c1ccccc1 (stereo not drawn)
108% (inactive)

Query: growth; subject: S=C=Nc1ccc(N2CCOCC2)cc1
92.5% (inactive)

Query: growth; subject: COc1cc(/C=C/c2ccnc3ccccc23)cc(OC)c1OC
34% (inactive)

----------
System: NCI/ADR-RES ovarian
Experiment: NCI-60 one-dose screen, 48 h
Settings: 10 µM unless noted
Procedure: Growth inhibition of the NCI/ADR-RES human […] tumor cell line is measured as a screen for anti-cancer activity. Cells are grown in 96 well plates and exposed to the test compound for 48 hours. Compounds are tested at a single concentration, which is 10^-5 M for most compounds. The reported endpoint is percent growth (GI% or GIPRCNT), where numbers from 0 - 100% represent growth inhibition, and numbers from -100% - 0 represent cell death. For example, a value of 40 represents 60% growth inhibition. […]
About 83,000 compounds went through this panel and 20% of them were active in at least one assay; those are over-represented in the sample as a whole. Activity calls are given as the source filed them. How the source made its calls: active means growth percent below 10; inactive means the rest.
Field 'call' accepts true (1) for active, false (0) for inactive

Solved entries:
INSERT INTO assay_data (molecule, system, answer_label) VALUES
  ('CCCCCCCCCCCCSC(=N)N', 'NCI/ADR-RES ovarian', 'false (0)'),
  ('CSc1nc(C)c(C(=O)CCN2CCN(c3ccccn3)CC2)s1', 'NCI/ADR-RES ovarian', 'false (0)'),
  ('COc1cc([C@@H]2c3cc4c(cc3[C@H](OC3OC5COC(c6ccccc6)OC5C(O)C3O)[C@H]3COC(=O)[C@H]23)OCO4)cc(OC)c1OC (stereo partly specified)', 'NCI/ADR-RES ovarian', 'true (1)'),
  ('CC(=O)OC1CC2CCC1(C)C2(C)C (stereo unspecified)', 'NCI/ADR-RES ovarian', 'false (0)'),
  ('COc1ccc2nc3cc(Cl)ccc3c(NCCCCCN3CCCCC3)c2c1', 'NCI/ADR-RES ovarian', 'true (1)'),
  ('O=C1C(=O)c2cccnc2-c2ncccc21', 'NCI/ADR-RES ovarian', 'true (1)');

Assay result, entry CC1=CC(=NC(=O)CBr)C=C/C1=N\S(=O)(=O)c1ccccc1 — outcome?
false (0)

Assay result, entry O=C1C(=O)c2cc([N+](=O)[O-])ccc2-c2ccccc21 — outcome?
true (1)

Assay result, entry CC(=O)c1ccc2c(c1)CCc1ccccc1-2 — outcome?
false (0)

Assay result, entry O=C(OC12CC3CC(CC(C3)C1)C2)c1ccc(NCc2cc(O)ccc2O)cc1 — outcome?
true (1)

Assay result, entry CCOc1ccc(C(C[N+](=O)[O-])Sc2ccccc2N)cc1 (stereo unspecified) — outcome?
false (0)

FYI, the data here is from PubChem BioAssay (NCI).
